Reference source for all entries: patent US10259810B2

Target: ΔF508-CFTR (Homo sapiens, UniProt P13569, DEL508-508)
Construct: host or cells: CFBE41o-, doxycycline-inducible
Sequence (P13569 with tags, fused parts or gaps DEL508-508): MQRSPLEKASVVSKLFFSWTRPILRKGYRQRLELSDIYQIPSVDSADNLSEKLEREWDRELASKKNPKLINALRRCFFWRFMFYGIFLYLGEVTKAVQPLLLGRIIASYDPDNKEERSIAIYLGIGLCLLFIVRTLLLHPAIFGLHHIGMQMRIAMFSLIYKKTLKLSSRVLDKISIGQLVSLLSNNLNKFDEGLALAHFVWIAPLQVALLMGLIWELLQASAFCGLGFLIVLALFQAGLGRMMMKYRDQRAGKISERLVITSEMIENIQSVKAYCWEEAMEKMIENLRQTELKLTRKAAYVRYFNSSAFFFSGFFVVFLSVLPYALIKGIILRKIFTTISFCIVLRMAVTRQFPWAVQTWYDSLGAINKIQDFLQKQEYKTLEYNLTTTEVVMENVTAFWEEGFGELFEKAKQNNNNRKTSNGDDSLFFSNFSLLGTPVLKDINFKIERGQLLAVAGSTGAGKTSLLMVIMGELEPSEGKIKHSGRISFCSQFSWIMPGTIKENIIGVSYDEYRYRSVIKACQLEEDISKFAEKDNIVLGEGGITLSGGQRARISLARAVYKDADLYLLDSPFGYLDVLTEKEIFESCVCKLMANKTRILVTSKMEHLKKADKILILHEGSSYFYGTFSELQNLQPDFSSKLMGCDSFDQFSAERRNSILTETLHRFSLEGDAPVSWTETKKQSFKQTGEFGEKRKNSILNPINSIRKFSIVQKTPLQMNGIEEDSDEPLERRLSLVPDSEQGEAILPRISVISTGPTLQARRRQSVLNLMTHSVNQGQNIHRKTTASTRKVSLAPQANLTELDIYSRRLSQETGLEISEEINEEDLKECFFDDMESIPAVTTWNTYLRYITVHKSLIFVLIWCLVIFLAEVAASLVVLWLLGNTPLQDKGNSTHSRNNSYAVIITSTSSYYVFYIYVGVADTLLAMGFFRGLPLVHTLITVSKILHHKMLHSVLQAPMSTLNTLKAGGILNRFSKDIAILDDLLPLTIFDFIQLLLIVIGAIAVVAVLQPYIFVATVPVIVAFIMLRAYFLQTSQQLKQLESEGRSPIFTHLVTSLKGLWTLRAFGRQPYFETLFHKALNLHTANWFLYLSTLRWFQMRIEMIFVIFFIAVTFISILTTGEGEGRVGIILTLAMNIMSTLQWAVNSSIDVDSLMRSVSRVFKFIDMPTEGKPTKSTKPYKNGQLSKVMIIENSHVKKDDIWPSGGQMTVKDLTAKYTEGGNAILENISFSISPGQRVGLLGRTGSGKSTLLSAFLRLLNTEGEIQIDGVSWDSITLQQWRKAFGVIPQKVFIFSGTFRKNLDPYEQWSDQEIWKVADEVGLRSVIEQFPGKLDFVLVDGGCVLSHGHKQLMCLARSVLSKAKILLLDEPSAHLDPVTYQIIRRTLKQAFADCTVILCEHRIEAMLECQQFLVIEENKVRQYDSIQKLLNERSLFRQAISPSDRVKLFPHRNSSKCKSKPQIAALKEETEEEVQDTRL
Experiment: CFTR cell surface levels using HRP-tagged ΔF508-CFTR expressing CFBE cells, in the presence of a co-corrector
Type: cell-based
Settings: HRP-tagged ΔF508-CFTR CFBE cells, in the presence of 3 μM co-corrector
This listing pairs compounds with measured % Activation.
State the answer as a number, implicitly in %.

Ask | Which % Activation reading was recorded for the compound COCC1CCN(c2cc(C(=O)NS(C)(=O)=O)nc3c2c(C(C)C)nn3-c2ccnc(N3CCOCC3)c2)CC1 ?
Reply | 450.6

Ask | Which % Activation reading was recorded for the compound CC(=O)N1CCC2CN(c3cc(C(=O)NS(C)(=O)=O)nc4c3c(C3CCC3)nn4-c3ccccc3)CCC21 (stereo not shown) ?
Reply | 456.1

Ask | Which % Activation reading was recorded for the compound CN(C)S(=O)(=O)NC(=O)c1cc(N2CCC(CN3CCOCC3)CC2)c2c(C3CCC3)nn(-c3ccc(F)cc3)c2n1 ?
Reply | 481.1

Ask | Which % Activation reading was recorded for the compound COCC1CCN(c2cc(C(=O)NS(=O)(=O)c3cn[nH]c3)nc3c2c(C2CCC2)nn3-c2ccccc2)CC1 ?
Reply | 454.4
